Test: PK protocol, intravenous administration in rats
Format: in vivo
Details: rat, plasma, male Sprague Dawley rats, 1 mg/kg
Experimental: Pharmacokinetic parameters were determined in male Sprague Dawley rats (Vital River Laboratory Animal Technology Co Ltd, Beijing, China, 7-9 weeks old). Animals were group housed during the study and maintained under a 12 h light/dark cycle. For intravenous administration, compounds were formulated as a solution in DMSO:PBS [10:90] in 2 mL/kg dosing volume and administered via tail vein. […]
property-name: half-life (h)

A = COc1cc(-c2cc(F)cc(C(C)C)c2CC(=O)NS(=O)(=O)c2ccc(C(C)C)cc2)ccn1
B = COc1cc(-c2ccc3c(c2CC(=O)NS(=O)(=O)c2ccc(C(C)(C)O)cc2C)CCC3)ccn1
Prompt line: // returns A or B , whichever has the lower half-life Bench note: the answer is the label of the chosen record.
Response line: A
(A: 7.2 h, B: 19.8 h)

---

IC50 by entry:
target: NLRP3 (Homo sapiens, UniProt Q96P20); construct: Seed THP-1 cells (25,000 cells/well) containing 1.0 μg/ml LPS in 40 μl of RPMI medium; host or cells: THP-1 cells; experiment: THP-1 cells pyroptosis assay; assay type: cell-based; settings: LPS 1 μg/ml, compound 3 hrs, nigericin 5 μM 1 hr, resazurin readout
Sequence (Q96P20 whole entry): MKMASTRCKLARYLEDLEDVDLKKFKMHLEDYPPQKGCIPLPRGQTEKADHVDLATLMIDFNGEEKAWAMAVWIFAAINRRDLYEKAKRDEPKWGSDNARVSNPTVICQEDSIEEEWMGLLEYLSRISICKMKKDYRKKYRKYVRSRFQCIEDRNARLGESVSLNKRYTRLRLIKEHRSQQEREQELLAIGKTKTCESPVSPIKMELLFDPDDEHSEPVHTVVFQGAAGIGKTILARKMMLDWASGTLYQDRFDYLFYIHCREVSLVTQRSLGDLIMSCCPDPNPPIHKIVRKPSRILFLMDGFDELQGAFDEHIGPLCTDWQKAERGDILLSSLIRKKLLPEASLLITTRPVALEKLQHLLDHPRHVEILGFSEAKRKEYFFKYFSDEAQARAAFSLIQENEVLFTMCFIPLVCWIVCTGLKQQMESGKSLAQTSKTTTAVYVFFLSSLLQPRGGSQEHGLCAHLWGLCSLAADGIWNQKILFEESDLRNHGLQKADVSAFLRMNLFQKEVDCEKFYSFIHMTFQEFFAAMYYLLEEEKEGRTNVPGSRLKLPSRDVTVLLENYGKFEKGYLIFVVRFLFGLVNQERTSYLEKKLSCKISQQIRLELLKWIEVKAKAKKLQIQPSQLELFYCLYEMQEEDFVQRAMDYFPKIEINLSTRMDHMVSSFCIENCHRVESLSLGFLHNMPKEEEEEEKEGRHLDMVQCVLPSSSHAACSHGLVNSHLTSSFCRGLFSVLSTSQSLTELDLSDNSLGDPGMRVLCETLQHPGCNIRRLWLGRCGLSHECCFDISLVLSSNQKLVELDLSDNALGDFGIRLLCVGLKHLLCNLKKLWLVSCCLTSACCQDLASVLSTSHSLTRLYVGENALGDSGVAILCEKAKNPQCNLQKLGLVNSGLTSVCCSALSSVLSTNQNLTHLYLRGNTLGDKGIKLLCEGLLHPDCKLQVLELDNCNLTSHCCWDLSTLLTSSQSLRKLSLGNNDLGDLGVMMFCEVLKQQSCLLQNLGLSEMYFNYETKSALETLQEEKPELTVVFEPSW

# compound, IC50
records = [
    ("COc1cc(-c2cc(F)cc(C(C)C)c2CC(=O)NS(=O)(=O)c2cccc(C#N)c2)ccn1 [Example 30]", "≤ 5 µM"),
]

Prompt line: Query: IC50; subject: COc1cc(-c2cc(F)cc(C(C)C)c2CC(=O)NS(=O)(=O)c2ccc(C#N)cc2C)ccn1 [Example 37]
Response line: ≤ 5 µM

Prompt line: Query: IC50; subject: CC(C)c1cc(F)cc(-c2ccncc2)c1CC(=O)NS(=O)(=O)c1cc(C(=O)N(C)C)n(C)n1 [Example 60]
Response line: ≤ 5 µM

Prompt line: Query: IC50; subject: COc1cc(-c2cc(F)cc(C(C)C)c2CC(=O)NS(=O)(=O)c2cnn(CC(C)(C)O)c2)ccn1 [Example 193]
Response line: ≤ 5 µM

Prompt line: Query: IC50; subject: CNc1cc(C)c(S(=O)(=O)NC(=O)Cc2c(-c3ccnc(OC)c3)cc(F)cc2C(C)C)cc1C [Example 155]
Response line: ≤ 5 µM

Prompt line: Query: IC50; subject: COc1cc(-c2cc(F)cc(C(C)C)c2CC(=O)NS(=O)(=O)c2ccc(Br)cc2)ccn1 [Example 19]
Response line: ≤ 1 µM

Prompt line: Query: IC50; subject: COc1cc(-c2cc(F)cc(C(C)C)c2CC(=O)NS(=O)(=O)c2ccc(Cl)c(C(F)(F)F)c2)ccn1 [Example 141]
Response line: ≤ 1 µM

---

biological target: NLRP3 (Homo sapiens, UniProt Q96P20); construct: Seed THP-1 cells (25,000 cells/well) containing 1.0 μg/ml LPS in 40 μl of RPMI medium; assay: THP-1 cells pyroptosis assay; conditions: LPS 1 μg/ml, compound 3 hrs, nigericin 5 μM 1 hr, resazurin readout
Structures can show the parent of a compound that is named as a salt.
property-name: IC50

Please review the entries below; each comes with its answer.
# compound, IC50
measured = [
    ("COc1cc(-c2cc(F)cc(C(C)C)c2CC(=O)NS(=O)(=O)c2nn(C)/c(=N\\C(C)=O)s2)ccn1 [Example 131]", "≤ 5000 nM"),
    ("COc1cc(-c2ccc3c(c2CC(=O)NS(=O)(=O)c2ncc(C(C)(C)O)s2)CCC3)ccn1 [Example 105]", "≤ 10000 nM"),
    ("COc1cc(-c2cc(F)cc(C(C)C)c2CC(=O)NS(=O)(=O)c2c(C)cc(N(C)C)cc2C)ccn1 [Example 146]", "≤ 10000 nM"),
    ("CC(C)c1cc(F)cc(-c2cccnc2)c1CC(=O)NS(=O)(=O)c1cnc(C(C)(C)O)s1 [Example 142]", "≤ 1000 nM"),
    ("CCC(O)(CC)c1cc(S(=O)(=O)NC(=O)Cc2c(-c3ccnc(OC)c3)cc(F)cc2C(C)C)sc1C [Example 199]", "≤ 500 nM"),
]

Prompt line: // map COc1cc(-c2cc(F)cc(C(C)C)c2CC(=O)NS(=O)(=O)c2ccc(C(C)C)cc2)ccn1 [Example 110] to recorded IC50 (system: NLRP3 (Homo sapiens, UniProt Q96P20))
Response line: ≤ 1000 nM

Prompt line: // map CC(C)c1cc(S(=O)(=O)NC(=O)Cc2c(-c3cccnc3)cc(F)cc2C(C)C)c(F)cc1F [Example 200] to recorded IC50 (system: NLRP3 (Homo sapiens, UniProt Q96P20))
Response line: ≤ 500 nM

Prompt line: // map COc1cc(-c2cc(F)cc(C(C)C)c2CC(=O)NS(=O)(=O)c2ccn(C(C)C)n2)ccn1 [Example 23, potassium salt] to recorded IC50 (system: NLRP3 (Homo sapiens, UniProt Q96P20))
Response line: ≤ 5000 nM

---

pIC50 by entry:
target: NLRP3 (Homo sapiens); construct: Seed THP-1 cells (25,000 cells/well) containing 1.0 μg/ml LPS in 40 μl of RPMI medium; assay: THP-1 cells pyroptosis assay; conditions: LPS 1 μg/ml, compound 3 hrs, nigericin 5 μM 1 hr, resazurin readout
pIC50: −log10 of the molar value. Counter-ions that a name gives are not always drawn.

Please review the entries below; each comes with its answer.
# compound, pIC50
measured = [
    ("COc1cc(-c2cc(F)cc(C(C)C)c2CC(=O)NS(=O)(=O)c2cc(Br)c(Cl)cc2C)ccn1", "≥ 6.00"),
    ("CCN(CC)CCCS(=O)(=O)NC(=O)Cc1c(-c2ccnc(OC)c2)ccc2c1CCC2", "≥ 5.00"),
    ("COc1cc(-c2cc(F)cc(C(C)C)c2CC(=O)NS(=O)(=O)c2ccc3ccccc3c2)ccn1", "≥ 6.30"),
    ("CCC(C)(O)c1ccc(S(=O)(=O)NC(=O)Cc2c(-c3ccnc(OC)c3)cc(F)cc2C(C)C)cc1F (centres unmarked)", "≥ 6.30"),
    ("COc1cc(-c2ccc3c(c2CC(=O)NS(=O)(=O)c2cc(C(=O)N(C)C)n(C)n2)CCC3)ccn1", "≥ 5.00"),
    ("CC(C)(O)c1csc(S(=O)(=O)NC(=O)Cc2c(-c3ccnc(C#N)c3)ccc3c2CCC3)c1", "≥ 5.30"),
    ("COc1cncc(-c2cc(F)cc(C(C)C)c2CC(=O)NS(=O)(=O)c2cc(C(C)(C)O)cs2)c1", "≥ 5.30"),
    ("CCOC(=O)c1cc(S(=O)(=O)NC(=O)Cc2c(-c3ccnc(OC)c3)cc(F)cc2C(C)C)nn1C", "≥ 5.30"),
    ("COc1cc(-c2cc(F)cc(C(C)C)c2CC(=O)NS(=O)(=O)c2cc(C(C)(C)O)ccc2C)ccn1", "≥ 5.30"),
    ("COc1cc(-c2cc(F)cc(C(C)C)c2CC(=O)NS(=O)(=O)c2ccc(=O)n(C(C)C)c2)ccn1 [Example 2, potassium salt]", "≥ 5.30"),
]

Prompt line: Query: pIC50; subject: `COc1cc(-c2cc(F)cc(C(C)C)c2CC(=O)NS(=O)(=O)c2cc(F)c(Br)cc2C)ccn1`
Response line: ≥ 6.30

Prompt line: Query: pIC50; subject: `COc1cc(-c2cc(F)cc(C(C)C)c2CC(=O)NS(=O)(=O)C[C@@]23CC[C@@H](C[C@H]2O)C3(C)C)ccn1`
Response line: ≥ 5.30

Prompt line: Query: pIC50; subject: `COc1cc(-c2cc(F)cc(C(C)C)c2CC(=O)NS(=O)(=O)c2cccc(Cl)c2C)ccn1`
Response line: ≥ 5.00

Prompt line: Query: pIC50; subject: `COc1cc(-c2cc(F)cc(C(C)C)c2CC(=O)NS(=O)(=O)c2cccc(C(C)(C)O)c2)ccn1`
Response line: ≥ 6.00

Prompt line: Query: pIC50; subject: `COc1cc(-c2cc(F)cc(C(C)C)c2CC(=O)NS(=O)(=O)c2ccc(C(C)(C)O)cc2C)ccn1`
Response line: ≥ 6.30

Prompt line: Query: pIC50; subject: `COc1cc(-c2cc(F)cc(C(C)C)c2CC(=O)NS(=O)(=O)c2ccc(C(C)(C)O)cn2)ccn1`
Response line: ≥ 5.00

Prompt line: Query: pIC50; subject: `COc1cccc(S(=O)(=O)NC(=O)Cc2c(-c3ccnc(OC)c3)cc(F)cc2C(C)C)c1`
Response line: ≥ 6.00

Prompt line: Query: pIC50; subject: `COc1cc(-c2cc(F)cc(C(C)C)c2CC(=O)NS(=O)(=O)c2cccc(C(C)(C)C#N)c2)ccn1`
Response line: ≥ 5.30

Prompt line: Query: pIC50; subject: `COc1cc(-c2cc(F)cc(C(C)C)c2CC(=O)NS(=O)(=O)c2ccc(C(C)(C)F)cc2C)ccn1`
Response line: ≥ 6.30

Prompt line: Query: pIC50; subject: `COc1cc(-c2cc(F)cc(C(C)C)c2CC(=O)NS(=O)(=O)C[C@]23CCC(CC2=O)C3(C)C)ccn1`
Response line: ≥ 5.00

Prompt line: Query: pIC50; subject: COc1cc(-c2cc(F)cc(C(C)C)c2CC(=O)NS(=O)(=O)c2ccc(=O)n(C)c2)ccn1 [Example 1, potassium salt]
Response line: ≥ 5.00
